Form field: IC50 (one value per entry).
- target or test system: HO-2 (rat brain) (Rattus norvegicus, UniProt P23711)
- Construct: brain microsomes were used as a source of HO-2; from tissue; host or cells: brain microsomal fraction of adult male Sprague-Dawley rats
- Sequence (P23711 whole entry): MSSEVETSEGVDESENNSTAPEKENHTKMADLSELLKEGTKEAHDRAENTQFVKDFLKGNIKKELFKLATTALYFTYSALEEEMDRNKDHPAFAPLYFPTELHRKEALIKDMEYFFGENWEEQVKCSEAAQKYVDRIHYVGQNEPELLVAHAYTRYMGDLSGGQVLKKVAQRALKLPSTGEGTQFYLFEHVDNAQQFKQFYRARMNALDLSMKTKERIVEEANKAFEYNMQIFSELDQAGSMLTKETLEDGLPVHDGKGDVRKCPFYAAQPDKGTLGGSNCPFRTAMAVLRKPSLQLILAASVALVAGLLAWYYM
- measurement notes: HO enzymatic activity in rat brain microsomal fraction (CO formed from methemalbumin, gas chromatography)
- Format: biochemical
- reported conditions: rat brain microsomes; average ± standard deviation of replicate experiments; read-out: IC50 HO-2 (rat brain)/μM
Structures can show the parent of a compound that is named as a salt.

| compound | target or test system | IC50 |
| --- | --- | --- |
| c1ccc(CCCCCn2ccnc2)cc1 [hydrochloride] | HO-2 (rat brain) (Rattus norvegicus, UniProt P23711) | 20 µM |
| c1ccc(SCCCn2ccnc2)cc1 [hydrochloride] | HO-2 (rat brain) (Rattus norvegicus, UniProt P23711) | 16 µM |
| c1cn(CC23CC4CC(CC(C4)C2)C3)cn1 [hydrochloride] | HO-2 (rat brain) (Rattus norvegicus, UniProt P23711) | > 100 µM |
| CC(C)(C)c1ccc(CCC(=O)Cn2ccnc2)cc1 [hydrochloride] | HO-2 (rat brain) (Rattus norvegicus, UniProt P23711) | 0.9 µM |
| Clc1ccc(CCC2(Cn3ccnc3)OCCO2)cc1 [hydrochloride] | HO-2 (rat brain) (Rattus norvegicus, UniProt P23711) | > 100 µM |
| O=C(CCc1ccccc1)CCn1ccnc1 [hydrochloride] | HO-2 (rat brain) (Rattus norvegicus, UniProt P23711) | 114 µM |

----------
- target or test system: HO-1 (rat spleen) (Rattus norvegicus)
- Construct: Spleen microsomes were used as a source of HO-1; from tissue; host or cells: spleen microsomal fraction of adult male Sprague-Dawley rats
- Sequence (P06762 1-289): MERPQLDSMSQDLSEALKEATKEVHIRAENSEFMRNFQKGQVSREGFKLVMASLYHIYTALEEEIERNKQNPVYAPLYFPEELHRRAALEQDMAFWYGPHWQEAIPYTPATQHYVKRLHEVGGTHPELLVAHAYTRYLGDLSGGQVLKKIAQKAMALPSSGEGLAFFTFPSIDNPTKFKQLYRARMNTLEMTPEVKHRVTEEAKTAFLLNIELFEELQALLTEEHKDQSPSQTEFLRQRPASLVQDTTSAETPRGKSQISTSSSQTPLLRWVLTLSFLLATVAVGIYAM
- measurement notes: HO enzymatic activity in rat spleen microsomal fraction (CO formed from methemalbumin, gas chromatography)
- Format: biochemical
- reported conditions: rat spleen microsomes; average ± standard deviation of replicate experiments; read-out: IC50 HO-1 (rat spleen)/μM
Structures can show the parent of a compound that is named as a salt.
Form field: log10 of IC50 (one value per entry).
outcome measure: log10 of IC50 (log10 of the value in µM)

| molecule | log10 of IC50 |
| --- | --- |
| O=C(CCc1ccccc1)CCn1ccnc1 [hydrochloride] | 1.45 |
| c1ccc2cc(C3(Cn4ccnc4)OCCO3)ccc2c1 [hydrochloride] | 0.42 |
| O=C(CCc1ccc(C(F)(F)F)cc1)Cn1ccnc1 [hydrochloride] | -0.60 |
| COC(=O)c1cncn1CC(=O)CCc1ccccc1 | 1.84 |
| Brc1ccc(CCC2(Cn3ccnc3)OCCO2)cc1 [hydrochloride] | 0.28 |
| OC(Cn1ccnc1)c1ccc(Cl)cc1 (racemic) [hydrochloride] | 0.08 |
| O=C(Cn1ccnc1)c1ccc(Cc2ccccc2)cc1 [hydrochloride] | 0.30 |
| c1ccc(CCn2ccnc2)cc1 | 1.86 |
| c1cn(CCCCc2ccc(CCCCn3ccnc3)cc2)cn1 [dihydrochloride] | -0.40 |
| CC(C)c1ccc(CCC(=O)Cn2ccnc2)cc1 [hydrochloride] | -0.79 |
| O=C(CCc1ccc([N+](=O)[O-])cc1)Cn1ccnc1 [hydrochloride] | 0.26 |
| O=C(Cn1cncn1)c1ccc2ccccc2c1 [hydrochloride] | -0.15 |
| O=C(Cn1cncn1)c1ccc([N+](=O)[O-])cc1 [hydrochloride] | 1.28 |
| OC(CCc1ccc(F)cc1)Cn1ccnc1 (centres unmarked) [hydrochloride] | 0.15 |
| Clc1ccc(CCCCn2ccnc2)cc1 [hydrochloride] | -0.33 |
| FC(F)(F)c1ccc(CCCCn2ccnc2)cc1 [hydrochloride] | -0.42 |

----------
- target or test system: HO-1 (rat spleen) (Rattus norvegicus, UniProt P06762)
- Construct: Spleen microsomes were used as a source of HO-1; from tissue; host or cells: spleen microsomal fraction of adult male Sprague-Dawley rats
- measurement notes: HO enzymatic activity in rat spleen microsomal fraction (CO formed from methemalbumin, gas chromatography)
- Type: biochemical
- reported conditions: rat spleen microsomes; average ± standard deviation of replicate experiments; read-out: IC50 HO-1 (rat spleen)/μM
Structures can show the parent of a compound that is named as a salt.

| compound | target or test system | censoring qualifier | IC50 [µM] |
| --- | --- | --- | --- |
| O=C(CCc1ccc(O)cc1)Cn1ccnc1 [hydrochloride] | HO-1 (rat spleen) (Rattus norvegicus, UniProt P06762) | > | 100 |
| c1ccc(CCC2(Cn3ccnn3)OCCO2)cc1 [hydrochloride] | HO-1 (rat spleen) (Rattus norvegicus, UniProt P06762) | > | 100 |
| O=C(Cn1cncn1)c1ccc2c(c1)OCCO2 | HO-1 (rat spleen) (Rattus norvegicus, UniProt P06762) | = | 18 |
| O=C(Cn1ccnc1)c1ccc(I)cc1 | HO-1 (rat spleen) (Rattus norvegicus, UniProt P06762) | = | 4 |
| O=C(CCn1ccnc1)C12CC3CC(CC(C3)C1)C2 [hydrochloride] | HO-1 (rat spleen) (Rattus norvegicus, UniProt P06762) | = | 3.5 |
| CSc1nnn(CC(=O)CCc2ccccc2)n1 | HO-1 (rat spleen) (Rattus norvegicus, UniProt P06762) | > | 100 |
| c1ccc(-c2ccc(C3(Cn4ccnc4)OCCO3)cc2)cc1 [hydrochloride] | HO-1 (rat spleen) (Rattus norvegicus, UniProt P06762) | = | 16.2 |
| O=C(Cn1cncn1)c1cccc2ccccc12 [hydrochloride] | HO-1 (rat spleen) (Rattus norvegicus, UniProt P06762) | = | 0.79 |
| O=C(Cn1ccnc1)c1ccc(Cl)cc1Cl [hydrochloride] | HO-1 (rat spleen) (Rattus norvegicus, UniProt P06762) | = | 2.2 |
| O=C(/C(=N/O)n1ccnc1)c1ccc(Cl)cc1 | HO-1 (rat spleen) (Rattus norvegicus, UniProt P06762) | = | 103 |
| Nc1ccccc1SC[C@@H]1CO[C@@](CCc2ccc(Cl)cc2)(Cn2ccnc2)O1 [dihydrochloride] | HO-1 (rat spleen) (Rattus norvegicus, UniProt P06762) | = | 4 |
| CSc1nnnn1CC(=O)CCc1ccccc1 | HO-1 (rat spleen) (Rattus norvegicus, UniProt P06762) | > | 100 |
| c1ccc(CCC2(Cn3ncnn3)OCCO2)cc1 [hydrochloride] | HO-1 (rat spleen) (Rattus norvegicus, UniProt P06762) | = | 72 |

----------
Form field: IC50 (one value per entry).
- target or test system: HO-1 (rat spleen) (Rattus norvegicus, UniProt P06762)
- Construct: Spleen microsomes were used as a source of HO-1; from tissue; host or cells: spleen microsomal fraction of adult male Sprague-Dawley rats
- Sequence (P06762 1-289): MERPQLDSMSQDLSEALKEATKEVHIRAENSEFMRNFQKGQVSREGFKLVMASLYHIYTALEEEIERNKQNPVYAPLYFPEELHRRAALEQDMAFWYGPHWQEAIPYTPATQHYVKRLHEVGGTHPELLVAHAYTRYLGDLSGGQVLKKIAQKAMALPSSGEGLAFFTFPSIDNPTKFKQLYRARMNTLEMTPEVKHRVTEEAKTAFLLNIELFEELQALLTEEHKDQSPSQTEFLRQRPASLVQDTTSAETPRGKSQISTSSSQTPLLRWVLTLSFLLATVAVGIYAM
- measurement notes: HO enzymatic activity in rat spleen microsomal fraction (CO formed from methemalbumin, gas chromatography)
- Type: biochemical
- reported conditions: rat spleen microsomes; average ± standard deviation of replicate experiments; read-out: IC50 HO-1 (rat spleen)/μM
Structures can show the parent of a compound that is named as a salt.

| compound | IC50 |
| --- | --- |
| Brc1ccc(CNCc2cccnc2)cc1 | > 100 µM |
| CCOC(=O)N1CCC(Nc2nc3ccccc3[nH]2)CC1 | > 100 µM |
| c1cn(CCCCCCCCCCCCn2ccnc2)cn1 [dihydrochloride] | ~4 µM |
| c1ccc2[nH]c(CN3CCCC3)nc2c1 | > 100 µM |

----------
Form field: IC50 (one value per entry).
- target or test system: HO-1 (rat spleen) (Rattus norvegicus, UniProt P06762)
- Construct: Spleen microsomes were used as a source of HO-1; from tissue; host or cells: spleen microsomal fraction of adult male Sprague-Dawley rats
- Sequence (P06762 1-289): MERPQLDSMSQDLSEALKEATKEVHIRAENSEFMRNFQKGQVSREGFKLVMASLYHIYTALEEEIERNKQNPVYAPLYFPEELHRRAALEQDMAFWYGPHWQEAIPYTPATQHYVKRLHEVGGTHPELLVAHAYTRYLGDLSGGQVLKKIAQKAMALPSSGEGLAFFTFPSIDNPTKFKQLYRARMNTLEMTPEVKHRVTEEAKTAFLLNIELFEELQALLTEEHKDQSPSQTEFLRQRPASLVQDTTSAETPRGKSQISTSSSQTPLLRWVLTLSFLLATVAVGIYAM
- measurement notes: HO enzymatic activity in rat spleen microsomal fraction (CO formed from methemalbumin, gas chromatography)
- Format: biochemical
- reported conditions: rat spleen microsomes; average ± standard deviation of replicate experiments; read-out: IC50 HO-1 (rat spleen)/μM
Structures can show the parent of a compound that is named as a salt.

| molecule | censoring qualifier | IC50 [µM] |
| --- | --- | --- |
| COC(=O)Nc1nc2ccc(Sc3ccccc3)cc2[nH]1 [Fenbendazol, reference compound] | > | 100 |
| CS(=O)(=O)c1nnn(CC(=O)CCc2ccccc2)n1 | > | 100 |
| O=C(Cn1ccnc1)C12CC3CC(CC(C3)C1)C2 [hydrochloride] | = | 7 |
| c1ccc(CCCCCn2ccnc2)cc1 [hydrochloride] | = | 2.8 |
| CCOC(=O)N1CCC(Nc2nc3ccccc3n2Cc2ccc(F)cc2)CC1 | > | 100 |
| CC(C)(C)c1ccc(CCC(=O)Cn2ccnc2)cc1 [hydrochloride] | = | 0.2 |
| c1ccc(OCCCCn2ccnc2)cc1 [hydrochloride] | = | 4 |
| Clc1ccc(CC[C@@]2(Cn3ccnc3)OC[C@@H](CSc3ccc4ccccc4c3)O2)cc1 [hydrochloride] | = | 0.9 |
| O=C(CCc1ccccc1)Cn1cncc1Br | = | 22 |
| O=C(CCc1ccccc1)Cn1nnc(-c2ccccc2)n1 | > | 100 |
| O=C(CCc1ccc(F)cc1)Cn1ccnc1 [hydrochloride] | = | 2.7 |
| Clc1ccc(CC[C@]2(Cn3ccnc3)OC[C@@H](CSc3ccc4ccccc4c3)O2)cc1 [hydrochloride] | = | 14 |
